Target: JAK2 (Homo sapiens (Human))
Sequence (O60674 849-1124): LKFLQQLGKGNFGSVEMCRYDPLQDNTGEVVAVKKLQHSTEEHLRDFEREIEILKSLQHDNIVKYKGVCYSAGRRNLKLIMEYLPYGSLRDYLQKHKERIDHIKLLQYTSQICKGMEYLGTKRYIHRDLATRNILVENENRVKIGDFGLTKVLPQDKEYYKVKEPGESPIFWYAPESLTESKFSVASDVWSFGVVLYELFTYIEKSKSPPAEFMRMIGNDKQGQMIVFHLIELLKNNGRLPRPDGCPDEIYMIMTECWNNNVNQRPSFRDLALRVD
Assay: Jak biochemical HTRF assay, JAK2
Details: read-out: JAK2 IC50, recombinant GST-tagged catalytic domain, [ATP] […]
outcome-measure: IC50 (nM)

Solved entries (count: 2):
C[C@H](CC#N)n1cc(C(N)=O)c(Nc2ccccc2)n1 (single isomer, unassigned)	469
N#CC[C@H](C1CC1)n1cc(C(N)=O)c(Nc2ccc3c(c2)CNC3=O)n1 (single isomer, unassigned)	15

[I] CC[C@@H](CC#N)n1cc(C(N)=O)c(Nc2ccccc2)n1 (single isomer, unassigned)
[II] N#CC[C@@H](C1CC1)n1cc(C(N)=O)c(Nc2ccc3c(c2)CNC3=O)n1 (single isomer, unassigned)
[in] Could you determine which record has the numerically smaller IC50? Candidates: I and II Provide the label of your selected option as the answer.
[out] II
(II: 105 nM, I: 800 nM)

[A] CC[C@H](CC#N)n1cc(C(N)=O)c(Nc2ccccc2)n1 (single isomer, unassigned)
[B] N#CCC(C1CC1)n1cc(C(N)=O)c(Nc2ccccc2F)n1 (stereo not shown)
[in] Looking only at measured IC50, which entry is lower, A or B ? State the label of the item chosen.
[out] A
(A: 578 nM, B: 1480 nM)

---

Target: JAK2 (Homo sapiens (Human))
Experiment: Jak biochemical HTRF assay, JAK2
Details: JAK2 IC50 (nM), recombinant GST-tagged catalytic domain, [ATP] […]
outcome-measure: IC50 (nM)

Some compounds with recorded IC50:
N#CCC(C1CC1)n1cc(C(N)=O)c(Nc2cccc(CO)c2)n1 (stereo not shown) [Example 4-10]	41
COCCOC(=O)N1CCC([C@H](CC#N)n2cc(C(N)=O)c(Nc3ccc(F)cc3)n2)CC1 [Example 12-1]	1500
N#CCC(n1cc(C(N)=O)c(Nc2ccccc2)n1)C(F)(F)F (stereo not shown) [Example 2]	339

[I] N#CCC(C1CCCC1)n1cc(C(N)=O)c(Nc2ccccc2)n1 (stereo not shown) [Example 1-20]
[II] N#CCC(C1CC1)n1cc(C(N)=O)c(Nc2ccc(S(=O)(=O)C(F)F)cc2)n1 (stereo not shown) [Example 4-29]
[in] Parameter metric = IC50. Return the lower-valued option from I and II . API: response body contains the label of the selected item.
[out] II
(II: 13 nM, I: 474 nM)

[A] N#CCC(C1CC1)n1cc(C(N)=O)c(Nc2ccc3c(c2)CN(CC(=O)O)C3=O)n1 (stereo not shown) [Example 8]
[B] N#CC[C@@H](C1CCN(C(=O)OC2CCCCC2)CC1)n1cc(C(N)=O)c(Nc2ccc(F)cc2)n1 (single isomer, unassigned) [Example 12-5]
[in] Given A and B , report the one with the higher recorded IC50. Respond using the label that marks the chosen record.
[out] B

---

Biological target: JAK1 (Homo sapiens (Human), UniProt P23458)
Sequence (P23458 875-1153): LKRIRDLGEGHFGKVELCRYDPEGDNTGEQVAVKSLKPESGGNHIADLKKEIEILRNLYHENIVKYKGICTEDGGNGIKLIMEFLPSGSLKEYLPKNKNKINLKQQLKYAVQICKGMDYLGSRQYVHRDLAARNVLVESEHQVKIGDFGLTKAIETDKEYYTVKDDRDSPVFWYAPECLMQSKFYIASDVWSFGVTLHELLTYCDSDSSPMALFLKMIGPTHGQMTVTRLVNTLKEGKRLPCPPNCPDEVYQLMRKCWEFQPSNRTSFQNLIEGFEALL
Assay: Jak biochemical HTRF assay, JAK1
Details: JAK1 IC50 (nM), recombinant GST-tagged catalytic domain, [ATP] 31.8 μM
outcome-measure: IC50 (nM)

Please review the following examples before continuing.
N#CCC(C1CC1)n1cc(C(N)=O)c(Nc2ccc3c(c2)CN(CC(=O)O)C3=O)n1 (centres unmarked)	1
CCOC(=O)N1CCC([C@H](CC#N)n2cc(C(N)=O)c(Nc3ccc(F)cc3)n2)CC1 (single isomer, unassigned)	44
C[C@@H](C#N)[C@H](C)n1cc(C(N)=O)c(Nc2ccccc2)n1 (mixture of isomers)	123
CC(CC#N)n1cc(C(N)=O)c(Nc2ccccc2)n1 (centres unmarked)	61
N#CCC(C1CC1)n1cc(C(N)=O)c(Nc2ccnc(F)c2)n1 (centres unmarked)	5

[P] CNC(=O)c1ccc(Nc2nn(C(CC#N)C3CC3)cc2C(N)=O)cc1 (centres unmarked)
[Q] N#CC[C@@H](C1CCN(C(=O)OCC(F)(F)F)CC1)n1cc(C(N)=O)c(Nc2ccc(F)cc2)n1
[in] Which record shows the lower IC50: the first, P , or the second, Q ? Let me know the label of the one you choose.
[out] P
(P: 2 nM, Q: 7 nM)

[I] CC(C)(CC#N)n1cc(C(N)=O)c(Nc2ccccc2)n1
[II] N#CCC(C1CCOC1)n1cc(C(N)=O)c(Nc2ccccc2)n1 (centres unmarked)
[III] N#CCC(C1CC1)n1cc(C(N)=O)c(Nc2ccc(S(N)(=O)=O)cc2)n1 (centres unmarked)
[in] // smallest IC50 at index 0, largest at the end Please respond by ranking the labels in the order requested.
[out] III, I, II

[1] CCC(CC#N)n1cc(C(N)=O)c(Nc2ccccc2)n1 (centres unmarked)
[2] N#CCC(C1CC1)n1cc(C(N)=O)c(Nc2ccc3c(c2)CCC3=O)n1 (centres unmarked)
[3] CC(C)(C)OC(=O)N1CCC(C(CC#N)n2cc(C(N)=O)c(Nc3ccc(F)cc3)n2)CC1 (single isomer, unassigned) [Example 14-3]
[4] CN1C(=O)c2ccc(Nc3nn(C(CC#N)C4CC4)cc3C(N)=O)cc2C1(C)C (centres unmarked)
[in] Order by IC50, ascending. Form entry: ranked labels (order as requested).
[out] 2, 4, 1, 3

[1] N#CCC(C1CC1)n1cc(C(N)=O)c(Nc2ccc(F)cc2)n1 (centres unmarked)
[2] N#CC[C@H](C1CC1)n1cc(C(N)=O)c(Nc2ccnc(F)c2)n1 (single isomer, unassigned)
[3] N#CCC(C1CC1)n1cc(C(N)=O)c(Nc2cccc(C(F)(F)F)c2)n1 (centres unmarked)
[in] hey, can you rank those molecules up there by IC50? biggest number first please Submit the labels in the order that the ranking request calls for.
[out] 3, 1, 2
